These entries and their values trace back to ChEMBL document CHEMBL1909617.

Below: a set of entries, each annotated with reported MNTC at 48 h.
experiment: Cytotoxicity against human embryo L02 cells assessed as cell viability after 48 hrs by MTT assay
Format: cell-based
experimental.setup: read-out: MTD

// below: answered molecules
- CC(C)(O[C@@H]1O[C@H](CO)[C@@H](O)[C@H](O)[C@H]1O)[C@@H]1CC[C@@](C)([C@H]2[C@H](O)C[C@]3(C)[C@@H]2CC[C@@H]2[C@@]4(C)CC[C@H](O[C@@H]5O[C@H](CO)[C@@H](O)[C@H](O)[C@H]5O[C@@H]5O[C@H](CO)[C@@H](O)[C@H](O)[C@H]5O)C(C)(C)[C@@H]4CC[C@]23C)O1 [OPERCULINOSIDE D]: 100 µg/mL
- COc1cc(C2Oc3cc([C@H]4Oc5cc(O)cc(O)c5C(=O)[C@@H]4O)ccc3OC2CO)ccc1O (stereo not given in full): 6.25 µg/mL
- CC(C)[C@]1(CO[C@@H]2O[C@H](CO)[C@@H](O)[C@H](O)[C@H]2O)CC[C@@](C)([C@H]2[C@H](O)C[C@]3(C)[C@@H]2CC[C@@H]2[C@@]4(C)CC[C@H](O[C@@H]5O[C@H](CO)[C@@H](O)[C@H](O)[C@H]5O[C@@H]5O[C@H](CO)[C@@H](O)[C@H](O)[C@H]5O)C(C)(C)[C@@H]4CC[C@]23C)O1 [OPERCULINOSIDE B]: 100 µg/mL

Q: Please report the recorded MNTC at 48 h for CC(C)(O)[C@@H]1CC[C@@](C)([C@H]2[C@H](O)C[C@]3(C)[C@@H]2CC[C@@H]2[C@@]4(C)CC[C@H](O[C@@H]5O[C@H](CO)[C@@H](O)[C@H](O)[C@H]5O[C@@H]5O[C@H](CO)[C@@H](O)[C@H](O)[C@H]5O)C(C)(C)[C@@H]4CC[C@]23C)O1 [OPERCULINOSIDE C] .
A: 50 µg/mL

Q: What would you report for CC(C)[C@]1(CO)CC[C@@](C)([C@H]2[C@H](O)C[C@]3(C)[C@@H]2CC[C@@H]2[C@@]4(C)CC[C@H](O[C@@H]5O[C@H](CO)[C@@H](O)[C@H](O)[C@H]5O[C@@H]5O[C@H](CO)[C@@H](O)[C@H](O)[C@H]5O)C(C)(C)[C@@H]4CC[C@]23C)O1 [OPERCULINOSIDE A] ?
A: 12.5 µg/mL
